- measured on: purified Na/K-ATPase (Sus scrofa (Pig))
- assay details: Na/K-ATPase activity, 96-well high throughput screen assay (released phosphate, BIOMOL GREEN)
- Assay type: biochemical
pIC50: −log10 of the molar value.
endpoint label: pIC50

Req: // lookup pIC50 for C[C@@H]1O[C@@H](O[C@H]2C[C@@H](O)[C@]3(CO)[C@H]4[C@H](O)C[C@]5(C)[C@@H](C6=CC(=O)OC6)CC[C@]5(O)[C@@H]4CC[C@]3(O)C2)[C@H](O)[C@H](O)[C@H]1O [ouabain]
Resp: ~5.30

---

- measured on: purified Na/K-ATPase (Sus scrofa (Pig), UniProt P05024)
- assay details: Na/K-ATPase activity, 96-well high throughput screen assay (released phosphate, BIOMOL GREEN)
- Type: biochemical
- condition notes: inhibition of purified pig kidney Na/K-ATPase, Table II; read-out: IC50
Parameter: IC50. Scope: all listed entries.
Note: unit µM is implicit; provide only the numeric part.

[[record]]
compound = "O=c1c2cccc(O)c2oc2cc(O)cc(O)c12 [MB3, 1,3,5-Trihydroxyxanthone]"
endpoint_label = "IC50"
observed_measurement = 65

[[record]]
compound = "O=c1c2cccc(O)c2oc2c(O)c(O)ccc12 [MB5, 3,4,5-Trihydroxyxanthone]"
endpoint_label = "IC50"
observed_measurement = 10

[[record]]
compound = "O=c1c2ccc(O)c(O)c2oc2c(O)c(O)ccc12 [MB7, 3,4,5,6-Tetrahydroxyxanthone]"
endpoint_label = "IC50"
observed_measurement = 5


API: the following record is the query input.
Req: // lookup IC50 for O=c1c2ccc(O)c(O)c2oc2cc(O)cc(O)c12 [MB6, 1,3,5,6-Tetrahydroxyxanthone]
Resp: 60

---

- measured on: purified Na/K-ATPase (Sus scrofa (Pig))
- assay details: Na/K-ATPase activity, 96-well high throughput screen assay (released phosphate, BIOMOL GREEN)
- Assay type: biochemical
- condition notes: dose-dependent inhibition of Na/K-ATPase, FIG. 1A; read-out: apparent IC50
endpoint label: IC50 (µM)
Note: unit µM is implicit; provide only the numeric part.

Req: // lookup IC50 for O=c1c2ccc(O)c(O)c2oc2c(O)c(O)ccc12 [MB7, 3,4,5,6-Tetrahydroxyxanthone]
Resp: 5
